targetSystem: GR (Homo sapiens, UniProt P04150)
Construct: expressed in transfected cells; host or cells: CV-1 cells, transient transfection (plasmid a gift of Keith Yamamoto, UCSF)
Sequence (P04150 1-777): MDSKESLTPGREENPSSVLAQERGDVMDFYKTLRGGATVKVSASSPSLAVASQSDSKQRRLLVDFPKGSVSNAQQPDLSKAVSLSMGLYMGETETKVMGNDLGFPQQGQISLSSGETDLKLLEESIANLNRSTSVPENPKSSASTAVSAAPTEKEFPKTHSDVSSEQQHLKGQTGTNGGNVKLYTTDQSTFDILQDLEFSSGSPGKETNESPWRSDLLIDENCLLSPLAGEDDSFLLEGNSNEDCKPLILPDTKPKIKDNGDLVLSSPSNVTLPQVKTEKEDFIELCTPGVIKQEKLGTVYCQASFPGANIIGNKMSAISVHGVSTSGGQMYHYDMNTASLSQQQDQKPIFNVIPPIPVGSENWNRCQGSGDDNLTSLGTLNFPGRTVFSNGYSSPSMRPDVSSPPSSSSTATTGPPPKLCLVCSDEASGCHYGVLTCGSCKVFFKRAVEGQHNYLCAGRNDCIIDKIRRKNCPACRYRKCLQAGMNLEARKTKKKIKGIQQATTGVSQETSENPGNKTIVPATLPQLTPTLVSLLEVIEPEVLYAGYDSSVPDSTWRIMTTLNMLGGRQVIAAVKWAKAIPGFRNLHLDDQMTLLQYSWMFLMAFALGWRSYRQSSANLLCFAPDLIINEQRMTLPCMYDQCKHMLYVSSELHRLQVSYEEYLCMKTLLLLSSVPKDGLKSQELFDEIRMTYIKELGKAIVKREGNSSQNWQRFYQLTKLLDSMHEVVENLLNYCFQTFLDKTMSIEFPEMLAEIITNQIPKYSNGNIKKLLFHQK
testDescription: GRE (TAT3-Luc) activation luciferase assay in CV-1 cells transfected with GR
Assay type: cell-based
recordedConditions: Table 4; read-out: GR pot (EC50)
pEC50: −log10 of the molar value.
recordedMetric: pEC50

Cc1cc(O)cc(C)c1C(O)C1CCCC2=Cc3c(cnn3-c3ccc(F)cc3)CC21C (stereo not shown) = 6.89
COc1cc(C(O)C2CCCC3=Cc4c(cnn4-c4ccc(F)cc4)CC32C)cc(OC)c1OC (stereo not shown) = 6.84
Cc1cc(C(O)C2CCCC3=Cc4c(cnn4-c4ccc(F)cc4)CC32C)ccc1O (stereo not shown) = 7.09
CC12Cc3cnn(-c4ccc(F)cc4)c3C=C1CCCC2C(O)c1cccc(O)c1 (stereo not shown) = 6.96

---

targetSystem: GR (Rattus norvegicus, UniProt P06536)
Construct: gift of Keith Yamamoto
Sequence (P06536 whole entry): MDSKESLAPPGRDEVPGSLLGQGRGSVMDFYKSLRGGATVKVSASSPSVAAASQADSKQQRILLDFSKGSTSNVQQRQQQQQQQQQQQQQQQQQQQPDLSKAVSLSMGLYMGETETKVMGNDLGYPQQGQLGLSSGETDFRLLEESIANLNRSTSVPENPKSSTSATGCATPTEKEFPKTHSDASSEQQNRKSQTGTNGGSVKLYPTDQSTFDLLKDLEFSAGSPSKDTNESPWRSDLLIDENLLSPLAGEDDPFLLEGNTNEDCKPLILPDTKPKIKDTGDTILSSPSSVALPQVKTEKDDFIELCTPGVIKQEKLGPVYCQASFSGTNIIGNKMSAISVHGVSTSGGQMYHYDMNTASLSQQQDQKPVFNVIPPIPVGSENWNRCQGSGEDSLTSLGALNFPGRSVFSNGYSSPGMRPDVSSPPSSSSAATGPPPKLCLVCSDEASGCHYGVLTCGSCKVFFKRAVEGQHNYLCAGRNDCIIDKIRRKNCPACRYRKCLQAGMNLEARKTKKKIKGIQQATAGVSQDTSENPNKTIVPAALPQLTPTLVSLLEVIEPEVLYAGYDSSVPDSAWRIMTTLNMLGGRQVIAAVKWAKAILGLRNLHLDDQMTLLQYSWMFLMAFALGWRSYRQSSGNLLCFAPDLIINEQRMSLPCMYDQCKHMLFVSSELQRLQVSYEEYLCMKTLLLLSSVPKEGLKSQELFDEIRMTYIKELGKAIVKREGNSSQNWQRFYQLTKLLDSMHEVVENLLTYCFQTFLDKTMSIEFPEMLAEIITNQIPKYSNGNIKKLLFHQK
testDescription: AP-1 repression luciferase assay in U2OS cells stably transfected with rat GR
recordedConditions: Table 5; TPA-stimulated U2OS cells; read-out: Repression AP-1 pot (EC50)
pEC50: −log10 of the molar value.
recordedMetric: pEC50

Cc1cc(O)cc(C)c1C(O)C1CCCC2=Cc3c(cnn3-c3ccc(F)cc3)CC21C (stereo not shown) [Compound 227] = 8.22
CC12Cc3cnn(-c4ccc(F)cc4)c3C=C1CCCC2C(O)c1cccc2[nH]ccc12 (stereo not shown) [Compound 237] = 8.31

a: CC12Cc3cnn(-c4ccc(F)cc4)c3C=C1CCCC2C(O)c1ccc(O)cc1 (stereo not shown) [Compound 231]
b: COc1cc(C(O)C2CCCC3=Cc4c(cnn4-c4ccc(F)cc4)CC32C)cc(OC)c1OC (stereo not shown) [Compound 223]
Query string: Between the entries labeled a and b , whose measured pEC50 is lower? Your choice should be expressed through its label.
Result string: a
